- System: LOC_OS05G43570-cb004
- Measurement Description: thermal shift delta Tm vs DMSO control; higher = stronger stabilization (binding);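 also: purified Escherichia coli-expressed rice kinase domain construct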
- Measurement Setup: 12.5 µM; protein concentration 2 µM
Structures can show the parent of a compound that is named as a salt.
Assay Readout: thermal shift delta Tm (°C)

Molecule: CCn1c(=O)c(-c2ccc(-c3cncs3)cc2Cl)cc2cnc(Nc3ccc(N4CCN(C)CC4)cc3)nc21
Result Unit: °C
Result Value: 0.24
--
Molecule: CC[C@@](C)(Nc1ccnc(-c2c[nH]c3ncccc23)n1)C(=O)NCC(F)(F)F [Decernotinib (VX-509)]
Result Unit: °C
Result Value: 0.57
--
Molecule: COc1cccc(-c2cc(=O)c3ccccc3o2)c1N
Result Unit: °C
Result Value: 0.15
--
Molecule: O=C(NCc1cccc(O)c1)Nc1nc(-c2ccncc2)cs1
Result Unit: °C
Result Value: 1.02
--
Molecule: CNc1nc(Nc2cnn([C@H]3CCN(C4COC4)C[C@@H]3F)c2Cl)ncc1C(F)(F)F
Result Unit: °C
Result Value: 0.4
--
Molecule: CC(C)=CC[C@@H](O)C1=CC(=O)c2c(O)ccc(O)c2C1=O [Shikonin]
Result Unit: °C
Result Value: 0.09
--
Molecule: C=CC(=O)Nc1cc(Nc2nccc(-c3c[nH]c4ccccc34)n2)c(OC)cc1N(C)CCN(C)C
Result Unit: °C
Result Value: 0.75
--
Molecule: O=C1c2c(O)cc(O)cc2OC(c2ccc(O)c(O)c2)C1O (stereo unspecified) [Taxifolin (Dihydroquercetin)]
Result Unit: °C
Result Value: -0.08
--
Molecule: Cc1cc([C@@H](C)Nc2ccccc2C(=O)O)c2nc(N3CCOCC3)cc(=O)n2c1
Result Unit: °C
Result Value: 0.63
--
Molecule: Cc1cc(NC(=O)c2cccc(NC(=O)/C=C/CN(C)C)c2)ccc1Nc1nccc(-c2cccnc2)n1
Result Unit: °C
Result Value: 0.56
--
Molecule: C[C@H]1CNCCCN1S(=O)(=O)c1cccc2cncc(F)c12 [Ripasudil (K-115) hydrochloride dihydrate]
Result Unit: °C
Result Value: 0.76
--
Molecule: CCN(C)S(=O)(=O)Nc1ccc(F)c(C(=O)c2c[nH]c3ncc(-c4cnc(C5CC5)nc4)cc23)c1F
Result Unit: °C
Result Value: 0.13
--
Molecule: O=C(Nc1ccccc1C(=O)NC1CCCCNC1=O)c1cc2ccccc2s1 (stereo unspecified)
Result Unit: °C
Result Value: 0.18
--
Molecule: O=C(NOC[C@H](O)CO)c1ccc(F)c(F)c1Nc1ccc(I)cc1F
Result Unit: °C
Result Value: 1.5
--
Molecule: CNc1nc(-c2ccc3c(N)n[nH]c3c2)cc(N2C[C@@H](C(=O)NC3CCCCC3)CC[C@H]2C)n1
Result Unit: °C
Result Value: 0.65
--
Molecule: Nc1nc(N)c2nc(-c3cccc(O)c3)c(-c3cccc(O)c3)nc2n1
Result Unit: °C
Result Value: 0.92
--
Molecule: O=C(NOCC(O)CO)c1cc(Br)c(F)c(F)c1Nc1ccc(I)cc1F (stereo unspecified)
Result Unit: °C
Result Value: 0.96
--
Molecule: CO[C@H]1C[C@@H]2CC[C@@H](C)[C@@](O)(O2)C(=O)C(=O)N2CCCC[C@H]2C(=O)O[C@H]([C@H](C)C[C@@H]2CC[C@H](n3cnnn3)[C@H](OC)C2)CC(=O)[C@H](C)/C=C(\C)[C@@H](O)[C@@H](OC)C(=O)[C@H](C)C[C@H](C)/C=C/C=C/C=C/1C [Zotarolimus(ABT-578)]
Result Unit: °C
Result Value: 1.17
--
Molecule: Cc1ccc(NC(=O)c2ccc(CN3CCN(C)CC3)cc2)cc1Nc1nccc(-c2cccnc2)n1 [Imatinib (STI571)]
Result Unit: °C
Result Value: 0.23
--
Molecule: CCC(=O)Nc1cccc(Oc2nc(Nc3ccc(N4CCN(C)CC4)cc3OC)ncc2Cl)c1
Result Unit: °C
Result Value: 0.44
--
Molecule: CNC(=O)c1cc(Oc2ccc3nc(N[C@@H]4CCCC[C@H]4O)sc3c2)ccn1
Result Unit: °C
Result Value: 0.57
--
Molecule: CC1(C)OC(=O)C=C[C@]2(C)[C@H]3CC[C@@]4(C)[C@H](c5ccoc5)OC(=O)[C@H]5O[C@]54[C@]3(C)C(=O)C[C@@H]12 [Obacunone]
Result Unit: °C
Result Value: 0.33
--
Molecule: CC(C)(C)c1ccc(S(=O)(=O)/C=C/C#N)cc1
Result Unit: °C
Result Value: 0.04
--
Molecule: CNS(=O)(=O)C[C@H]1CC[C@H](N(C)c2[nH]cnc3nccc2-3)CC1 [Oclacitinib]
Result Unit: °C
Result Value: 0.33
--
Molecule: CCn1c(=O)c(-c2cc[nH]n2)cc2c(C)nc(N)nc21
Result Unit: °C
Result Value: -0.07
--
Molecule: O=c1cc(N2CCOCC2)oc2c(-c3cccc4c3sc3ccccc34)cccc12
Result Unit: °C
Result Value: -0.66
--
Molecule: O=C1NC(=O)C(c2ccccc2[N+](=O)[O-])=C1Nc1ccc(O)c(Cl)c1
Result Unit: °C
Result Value: 0.82
--
Molecule: C[C@@H](Oc1ccc2[nH]nc(/C=C/c3cnn(CCO)c3)c2c1)c1c(Cl)cncc1Cl
Result Unit: °C
Result Value: 0.92
--
Molecule: C[C@@]1(C(=O)Nc2ccc(F)nc2)CCCN1c1nc(Nc2cc(C3CC3)n[nH]2)c2cccn2n1
Result Unit: °C
Result Value: 0.32
--
Molecule: COc1ccc(Cl)cc1NC(=O)Nc1cc(C)nc2ccccc12
Result Unit: °C
Result Value: 0.5
--
Molecule: c1cncc(CN2CCC(n3ncc4c(N5CCOCC5)nc(-c5ccc6[nH]ccc6c5)nc43)CC2)c1
Result Unit: °C
Result Value: -0.19
--
Molecule: N[C@@H]1CCCN(c2c(/C=C3\SC(=O)NC3=O)cccc2-c2ccccc2)C1
Result Unit: °C
Result Value: -0.01
--
Molecule: O=C(c1ccc(/C=C/c2n[nH]c3ccccc23)cc1)N1CCNCC1
Result Unit: °C
Result Value: 0.66
--
Molecule: Cn1cnc2c(F)c(Nc3ccc(Br)cc3F)c(C(=O)NOCCO)cc21
Result Unit: °C
Result Value: 0.51
--
Molecule: O=C(Nc1cccnc1)c1cc(-c2ccnc(F)c2)ccc1OCc1ccccc1
Result Unit: °C
Result Value: -0.18
--
Molecule: COc1cc2ncnc(Nc3ccc(Cl)cc3F)c2cc1OC
Result Unit: °C
Result Value: 0.29

====

Overview of recorded thermal shift delta Tm for various compounds
- Test system: LOC_OS01G60700-cb002
- Measurement Description: thermal shift delta Tm vs DMSO control; higher = stronger stabilization (binding)
- Measurement Setup: 12.5 µM; protein concentration 2 µM
Structures can show the parent of a compound that is named as a salt.

Compound: C=CC(=O)Nc1ccc(CN2C(=O)N(c3cc(OC)cc(OC)c3)Cc3cnc(Nc4ccc(N5CCN(C)CC5)cc4)nc32)cc1
thermal shift delta Tm (°C): 2.43
--
Compound: COc1cc2c(cc1OC)[C@@H]1C(=O)c3ccc4c(c3O[C@@H]1CO2)C=CC(C)(C)O4 [Deguelin]
thermal shift delta Tm (°C): 0.73
--
Compound: CN1CCC(COc2cnc(-c3cccc(Cn4nc(-c5cccc(C#N)c5)ccc4=O)c3)nc2)CC1
thermal shift delta Tm (°C): 0.62
--
Compound: O=C1Nc2ccc(I)cc2/C1=C/c1cc(Br)c(O)c(Br)c1
thermal shift delta Tm (°C): 2.48
--
Compound: O=C(c1cccc(Cl)c1F)N1CCN(Cc2cccc(Nc3nccs3)n2)CC1
thermal shift delta Tm (°C): 1.32
--
Compound: CCc1cncnc1N1CCN(Cc2nc3ccc(C(F)(F)F)cc3[nH]2)CC1
thermal shift delta Tm (°C): 0.72
--
Compound: CN(C)C/C=C/C(=O)Nc1cc2c(Nc3ccc(F)c(Cl)c3)ncnc2cc1O[C@H]1CCOC1 [Afatinib (BIBW2992) Dimaleate]
thermal shift delta Tm (°C): 1.57
--
Compound: CSc1cccc(Nc2ncc3cc(-c4c(Cl)cccc4Cl)c(=O)n(C)c3n2)c1
thermal shift delta Tm (°C): 0.94
--
Compound: Cc1cc([C@@H](C)Nc2ccccc2C(=O)O)c2nc(N3CCOCC3)cc(=O)n2c1
thermal shift delta Tm (°C): 0.5
--
Compound: N#C/C(=C\c1ccc(O)c(O)c1)C(=O)NCc1ccccc1 [AG-490 (Tyrphostin B42)]
thermal shift delta Tm (°C): 1.9
--
Compound: COc1ccc2c(Oc3ccc(NC(=O)c4c(C)n(CC(C)(C)O)n(-c5ccccc5)c4=O)nc3)ccnc2c1
thermal shift delta Tm (°C): 0.86
--
Compound: O=c1c(O)c(-c2cc(O)c(O)c(O)c2)oc2cc(O)cc(O)c12 [Myricetin]
thermal shift delta Tm (°C): -2.19
--
Compound: O=C(NOCCO)c1ccc2cncn2c1Nc1ccc(I)cc1F
thermal shift delta Tm (°C): 0.86
--
Compound: O=C(NOCC(O)CO)c1cc(Br)c(F)c(F)c1Nc1ccc(I)cc1F (configuration not stated)
thermal shift delta Tm (°C): 1.6
--
Compound: O=C1NC(=O)/C(=C/c2cccc(C(F)(F)F)c2)S1
thermal shift delta Tm (°C): 0.3
--
Compound: N=C(N)NC(=N)NCCc1ccccc1 [Phenformin HCl]
thermal shift delta Tm (°C): 0.54
--
Compound: COc1cc(Nc2ncc(F)c(Nc3ccc4c(n3)N(COP(=O)(O)O)C(=O)C(C)(C)O4)n2)cc(OC)c1OC [Fostamatinib (R788)]
thermal shift delta Tm (°C): 0.92
--
Compound: Cn1cc(-c2ccc3nnc(Sc4ccc5ncccc5c4)n3n2)cn1
thermal shift delta Tm (°C): 1.28
--
Compound: N#CC[C@H](C1CCCC1)n1cc(-c2ncnc3[nH]ccc23)cn1
thermal shift delta Tm (°C): 0.62
--
Compound: COc1cc2c(N3CCN(C(=O)Nc4ccc(OC(C)C)cc4)CC3)ncnc2cc1OCCCN1CCCCC1 [Tandutinib (MLN518)]
thermal shift delta Tm (°C): 0.63
--
Compound: C=CC(=O)Nc1cccc(Nc2nc(Nc3ccc(N4CCN(C(C)=O)CC4)cc3OC)ncc2C(F)(F)F)c1 [Rociletinib (CO-1686, AVL-301)]
thermal shift delta Tm (°C): 1.63
--
Compound: Cc1nc(-c2cn3c(n2)-c2ccc(-c4cnn(C(C)(C)C(N)=O)c4)cc2OCC3)n(C(C)C)n1 [Taselisib (GDC 0032)]
thermal shift delta Tm (°C): 0.46

The reported measurements were obtained from the supplement of paper PMC9694430.
